meta.source: the SangsterLogP compilation

Doc: threshold 0.7 (exclusive). Items with logP beneath it return YES; others return NO.

C/C=C/C=O | YES
CCCCOC(=O)c1ccccc1C(=O)OCc1ccccc1 | NO
CC(C)CC=O | NO
COCCOCCO | YES
C1=CC2C3C=CC(C3)C2C1 (stereo not drawn) | NO

input: Lab note: logP threshold 0.7. Does this compound come in strictly under it? `CC(C)C(=O)O`
output: NO

input: Lab note: logP threshold 0.7. Does this compound come in strictly under it? `C=C(C)CCl`
output: NO

input: Lab note: logP threshold 0.7. Does this compound come in strictly under it? `OCC#CCO`
output: YES

input: Lab note: logP threshold 0.7. Does this compound come in strictly under it? CCCCC(CC)COC(=O)CCCCC(=O)OCC(CC)CCCC (stereo not drawn)
output: NO

input: Lab note: logP threshold 0.7. Does this compound come in strictly under it? `CC(=O)OCCl`
output: NO

input: Lab note: logP threshold 0.7. Does this compound come in strictly under it? `Cc1ccc(S(=O)(=O)O)cc1`
output: YES

input: Lab note: logP threshold 0.7. Does this compound come in strictly under it? `CC(C)C=O`
output: YES

input: Lab note: logP threshold 0.7. Does this compound come in strictly under it? `CC[C@H](C)N`
output: YES

input: Lab note: logP threshold 0.7. Does this compound come in strictly under it? `NCCNCCN`
output: YES

input: Lab note: logP threshold 0.7. Does this compound come in strictly under it? `OCCOCCO`
output: YES

input: Lab note: logP threshold 0.7. Does this compound come in strictly under it? `C=CC(=O)OCC`
output: NO

input: Lab note: logP threshold 0.7. Does this compound come in strictly under it? `COCCOCCOCCO`
output: YES

---

Note that class boundaries on logP are low-valued: < 0.2; mid-valued: ≥ 0.2 and < 2; high-valued: ≥ 2

C=CCCl | high-valued
OCCS | low-valued

input: Lab note: sort `C=CC(=O)O` into the matching logP band.
output: mid-valued

input: Lab note: sort `OCCOCCOCCO` into the matching logP band.
output: low-valued

input: Lab note: sort `COS(=O)(=O)OC` into the matching logP band.
output: low-valued

input: Lab note: sort `O=P(OCCCl)(OCCCl)OCCCl` into the matching logP band.
output: mid-valued

input: Lab note: sort `CCCCCCCCCCO` into the matching logP band.
output: high-valued

input: Lab note: sort `CCOCCOC(C)=O` into the matching logP band.
output: mid-valued

input: Lab note: sort `CCCCOCCOCCOC(C)=O` into the matching logP band.
output: mid-valued
